System: Fusarium nivale (var. majus)
Assay: Fusarium nivale (var. majus) test (wheat)/protective
Format: in vivo
Conditions: 1000 ppm active compound, protective, evaluation 5 days after inoculation
For each record, write down the corresponding efficacy in %.
Answers are plain numbers, in %.

>>> result_number("O=C(Nc1cc(-c2c(-c3ccc(F)cc3)nn3c2CCCC3)ccn1)c1ccccc1")
86
>>> result_number("O=C(Nc1cc(-c2c(-c3ccc(F)cc3)nn3c2CCCC3)ccn1)C1CC1")
100
>>> result_number("CC(C)C(=O)Nc1cc(-c2c(-c3ccsc3)nn3c2CCCC3)ccn1")
83

Would you be so kind as to report efficacy in % for each listed record?
1. CCC(=O)Nc1cc(-c2c(-c3ccc(F)cc3)nn3c2CCCC3)ccn1
2. CC1CCc2c(-c3ccncc3F)c(-c3ccc(F)cc3)nn21 (centres unmarked)

100
100

###

Tested on: Alternaria solani
Experiment: Alternaria test (tomato)/protective
Type: in vivo
Details: in vivo
So basically: is efficacy in % under 90%? Then label 1. Not under? Then label 0.

Examples with answers:
>>> group("CC(C)C(=O)Nc1cc(-c2c(-c3ccc(F)cc3)nn3c2CCCCC3)ccn1")
"label 1"
>>> group("O=C(Nc1cc(-c2c(-c3ccccc3)nn3c2CCCC3)ccn1)C1CC1")
"label 0"
>>> group("COC(=O)Nc1cc(-c2c(-c3ccccc3)nn3c2CCCC3)ccn1")
"label 0"

Shifting focus to the compound that follows.
Could you please tell me whether efficacy in % recorded for CC1CCc2c(-c3ccncc3F)c(-c3ccc(F)cc3)nn21 (stereo not shown) is less than 90%?
label 0

###

Tested on: Venturia inaequalis
Test: Venturia test (apple)/protective
Assay type: in vivo
Settings: 100 ppm active compound, protective, evaluation 10 days after inoculation
So I've got a bunch of molecules here, and I need their efficacy in % values.
One number for each entry, in %.

>>> result_number("CC(=O)Nc1cc(-c2c(-c3ccccc3)nn3c2CCCC3)ccn1")
93
>>> result_number("CC1CCc2c(-c3ccncc3)c(-c3ccc(F)cc3)nn21 (stereo not shown)")
95
>>> result_number("COCC(=O)Nc1cc(-c2c(-c3ccc(F)cc3)nn3c2CCCC3)ccn1")
76

For each entry beneath this line, provide reported efficacy in %.
1. CCC(=O)Nc1cc(-c2c(-c3ccc(F)cc3)nn3c2CCCC3)ccn1
2. CC(=O)Nc1cc(-c2c(-c3ccsc3)nn3c2CCCC3)ccn1
3. O=C(Nc1cc(-c2c(-c3cccs3)nn3c2CCCC3)ccn1)C1CC1
4. Fc1ccc(-c2nn3c(c2-c2ccncc2)CCCCC3)cc1
5. CC(C)C(=O)Nc1cc(-c2c(-c3ccc(F)cc3)nn3c2CCCC3)ccn1
6. CC1CCc2c(-c3ccncc3F)c(-c3ccc(F)cc3)nn21 (stereo not shown)
7. CCC(=O)Nc1cc(-c2c(-c3ccc(F)cc3)nn3c2CCC3C)ccn1 (stereo not shown)
8. CCC(=O)Nc1cc(-c2c(-c3ccccc3)nn3c2CCCC3)ccn1

[98, 99, 94, 98, 100, 100, 100, 96]

Answer for every listed entry: what is its efficacy in %? The entries follow.
1. COC(=O)Nc1cc(-c2c(-c3ccccc3)nn3c2CCCC3)ccn1
2. CCC(=O)Nc1cc(-c2c(-c3ccc(F)cc3)nn3c2CCC3)ccn1
3. CC(C)C(=O)Nc1cc(-c2c(-c3ccccc3)nn3c2CCCC3)ccn1
4. CC(=O)Nc1cc(-c2c(-c3ccc(F)cc3)nn3c2CCCC3)ccn1
5. CC(C)Nc1cc(-c2c(-c3ccc(F)cc3)nn3c2CCC3)ccn1
6. CC(C)C(=O)Nc1cc(-c2c(-c3ccsc3)nn3c2CCCC3)ccn1
7. CC(C)C(=O)Nc1cc(-c2c(-c3ccc(F)cc3)nn3c2CCOC3)ccn1

[89, 94, 95, 94, 94, 99, 95]

Please look at the items below and tell me efficacy in % for each one, in order.
1. CC(C)CC(=O)Nc1cc(-c2c(-c3ccc(F)cc3)nn3c2CCCC3)ccn1
2. Fc1ccc(-c2nn3c(c2-c2ccncc2)CCCC3)cc1
3. CC(C)(O)C(=O)Nc1cc(-c2c(-c3ccccc3)nn3c2CCCC3)ccn1

99
95
88

Please report efficacy in % for every entry that follows.
1. c1ccc(-c2nn3c(c2-c2ccncc2)CCCC3)cc1
2. CC(C)C(=O)Nc1cc(-c2c(-c3ccc(F)cc3)nn3c2CCC3C)ccn1 (stereo not shown)
3. O=C(Nc1cc(-c2c(-c3ccccc3)nn3c2CCCC3)ccn1)C1CC1
4. COC(=O)Nc1cc(-c2c(-c3ccc(F)cc3)nn3c2CCCC3)ccn1
5. COCC(=O)Nc1cc(-c2c(-c3ccccc3)nn3c2CCCC3)ccn1
6. O=C(Cc1ccccc1)Nc1cc(-c2c(-c3ccccc3)nn3c2CCCC3)ccn1

[95, 100, 99, 93, 98, 95]

Reported efficacy in % for `O=C(Nc1cc(-c2c(-c3ccccc3)nn3c2CCCC3)ccn1)c1ccccc1` : what is it?
95

###

System: Alternaria solani
Assay: Alternaria test (tomato)/protective
Format: in vivo
Details: in vivo
Exercise: state measured efficacy in % for each of the molecules provided.

Sample records with efficacy in %:
>>> result("CC(=O)Nc1cc(-c2c(-c3ccccc3)nn3c2CCCC3)ccn1 [Example 19]")
"100%"
>>> result("CC(=O)Nc1cc(-c2c(-c3ccsc3)nn3c2CCCC3)ccn1 [Example 58]")
"80%"
>>> result("C[C@H](O)C(=O)Nc1cc(-c2c(-c3ccc(F)cc3)nn3c2CCCC3)ccn1 [Example 24]")
"95%"
>>> result("CC(C)(O)C(=O)Nc1cc(-c2c(-c3ccc(F)cc3)nn3c2CCCC3)ccn1 [Example 55]")
"80%"

Shifting focus to the molecule that follows.
Enter reported efficacy in % observed with Alternaria solani for CCC(=O)Nc1cc(-c2c(-c3ccc(F)cc3)nn3c2CCOC3)ccn1 [Example 95]
80%

###

I'd be grateful if you could share measured % inhibition of DON/AcDON at 50 μM for these entries.
Test system: DON/AcDON production
Experiment: microbe, parasite or virus in culture
Assay type: cell-based, Fusarium graminearum
Settings: 7 days at 28° C.
One number for each entry, in %.

>>> result_number("COC(=O)Nc1cc(-c2c(-c3ccccc3)nn3c2CCCC3)ccn1 [Example 27]")
99
>>> result_number("Cc1ccc(-c2nn3c(c2-c2ccncc2)CCC3)cc1 [Example 41]")
98
>>> result_number("Fc1cccc(-c2nn3c(c2-c2ccncc2)CCC3)c1 [Example 44]")
100

Quick batch: % inhibition of DON/AcDON at 50 μM for everything below.
1. Fc1ccc(-c2nn3c(c2-c2ccncc2)CCC3)cc1 [Example 7]
2. CC(C)CC(=O)Nc1cc(-c2c(-c3ccccc3)nn3c2CCCC3)ccn1 [Example 31]

1. 99
2. 99

###

So I've got a bunch of compounds here, and I need their chromatographic logP values.
Assay: log P determination by HPLC retention times (alkan-2-one calibration)
Conditions: log P, values marked [a] in Table 1
Give bare numbers.

Below: 3 compounds and their reported chromatographic logP.
>>> result_number("CCC(=O)Nc1cc(-c2c(-c3ccc(F)cc3)nn3c2CCCC3)ccn1 [Example 5]")
1.97
>>> result_number("Fc1ccc(-c2nn3c(c2-c2ccncc2)CCCC3)cc1 [Example 2]")
1.03
>>> result_number("Nc1cc(-c2c(-c3ccc(F)cc3)nn3c2CCCC3)ccn1 [Example 3]")
1.21

As a next step, examine the compound that follows.
Which chromatographic logP value is on record for COC(=O)Nc1cc(-c2c(-c3ccc(F)cc3)nn3c2CCCC3)ccn1 [Example 26] ?
2.11

###

Hi there, I'd appreciate the recorded inhibition at 50 µM for every entry that follows.
System: Fusarium graminearum
Assay: microbe, parasite or virus in culture
Assay type: cell-based
Settings: Fusarium graminearum, 72 h, read-out: % inhibition of the fungal growth of Fusarium graminearum at 50 μM
Numbers only, in %.

>>> result_number("COC(=O)Nc1cc(-c2c(-c3ccc(F)cc3)nn3c2CCCC3)ccn1")
57
>>> result_number("CCC(=O)Nc1cc(-c2c(-c3ccc(F)cc3)nn3c2CCCC3)ccn1")
100
>>> result_number("Fc1ccc(-c2nn3c(c2-c2ccncc2)CCCC3)cc1")
99

Would you be so kind as to report inhibition at 50 µM for each listed record?
1. Nc1cc(-c2c(-c3ccc(F)cc3)nn3c2CCCC3)ccn1
2. Fc1cc(-c2c(-c3ccccc3)nn3c2CCC3)ccn1

1. 30
2. 0

###

System: Alternaria solani
Assay: Alternaria test (tomato)/protective
Assay type: in vivo
Details: in vivo
Description: Solvent: 49 parts by weight of N,N-dimethylformamide Emulsifier: 1 part by weight of alkylaryl polyglycol ether To produce a suitable preparation of active compound, 1 part by weight of active compound is mixed with the stated amounts of solvent and emulsifier, and the concentrate is diluted with water to the desired concentration. To test for protective activity, young tomato plants are sprayed with the active compound preparation at the stated application rate. […]
// Not fulfilled strictly below 90% in efficacy in %; Fulfilled otherwise

Solved cases (8 shown):
>>> group("O=C(Cc1ccccc1)Nc1cc(-c2c(-c3ccc(F)cc3)nn3c2CCCC3)ccn1")
"Fulfilled"
>>> group("c1ccc(-c2nn3c(c2-c2ccncc2)CCC3)cc1")
"Not fulfilled"
>>> group("CC(=O)Nc1cc(-c2c(-c3ccc(F)cc3)nn3c2CCOC3(C)C)ccn1")
"Fulfilled"
>>> group("COC(=O)Nc1cc(-c2c(-c3ccsc3)nn3c2CCCC3)ccn1")
"Not fulfilled"
>>> group("CC(=O)Nc1cc(-c2c(-c3cccs3)nn3c2CCCC3)ccn1")
"Not fulfilled"
>>> group("CC(=O)Nc1cc(-c2c(-c3ccc(F)cc3)nn3c2CCOC3)ccn1")
"Not fulfilled"
>>> group("c1cc(-c2c(-c3ccsc3)nn3c2CCC3)ccn1")
"Not fulfilled"
>>> group("C[C@H](O)C(=O)Nc1cc(-c2c(-c3ccccc3)nn3c2CCCC3)ccn1")
"Fulfilled"

Given the entry `CC(=O)Nc1cc(-c2c(-c3ccc(F)cc3)nn3c2CCCC3)ccn1` , answer whether its efficacy in % meets or surpasses 90%.
Fulfilled

Item `CCC(=O)Nc1cc(-c2c(-c3ccccc3)nn3c2CCCC3)ccn1` with efficacy in % of 90% or above?
Fulfilled

Is it the case that `O=C(Nc1cc(-c2c(-c3ccsc3)nn3c2CCCC3)ccn1)C1CC1` has efficacy in % reaching or exceeding 90%?
Fulfilled

Cited source: patent US8507472B2
